- assay-method-text: In vivo pharmacokinetic properties in rats
- Design: species or system SD rats
- condition-description: male, SD, plasma; rat, iv 5 mg/kg
measurement-kind: clearance (mL/min/kg)
Answers are plain numbers, in mL/min/kg.

Value of measured clearance for the entry C=CC(=O)Nc1cc(Nc2ncc(Cl)c(O[C@@H]3CO[C@H]4[C@@H]3OC[C@H]4OC)n2)ccc1N(C)CCN(C)C : 155

* * *

- measured-target: TYK2 (Homo sapiens (Human), UniProt P29597)
- Sequence (P29597 whole entry): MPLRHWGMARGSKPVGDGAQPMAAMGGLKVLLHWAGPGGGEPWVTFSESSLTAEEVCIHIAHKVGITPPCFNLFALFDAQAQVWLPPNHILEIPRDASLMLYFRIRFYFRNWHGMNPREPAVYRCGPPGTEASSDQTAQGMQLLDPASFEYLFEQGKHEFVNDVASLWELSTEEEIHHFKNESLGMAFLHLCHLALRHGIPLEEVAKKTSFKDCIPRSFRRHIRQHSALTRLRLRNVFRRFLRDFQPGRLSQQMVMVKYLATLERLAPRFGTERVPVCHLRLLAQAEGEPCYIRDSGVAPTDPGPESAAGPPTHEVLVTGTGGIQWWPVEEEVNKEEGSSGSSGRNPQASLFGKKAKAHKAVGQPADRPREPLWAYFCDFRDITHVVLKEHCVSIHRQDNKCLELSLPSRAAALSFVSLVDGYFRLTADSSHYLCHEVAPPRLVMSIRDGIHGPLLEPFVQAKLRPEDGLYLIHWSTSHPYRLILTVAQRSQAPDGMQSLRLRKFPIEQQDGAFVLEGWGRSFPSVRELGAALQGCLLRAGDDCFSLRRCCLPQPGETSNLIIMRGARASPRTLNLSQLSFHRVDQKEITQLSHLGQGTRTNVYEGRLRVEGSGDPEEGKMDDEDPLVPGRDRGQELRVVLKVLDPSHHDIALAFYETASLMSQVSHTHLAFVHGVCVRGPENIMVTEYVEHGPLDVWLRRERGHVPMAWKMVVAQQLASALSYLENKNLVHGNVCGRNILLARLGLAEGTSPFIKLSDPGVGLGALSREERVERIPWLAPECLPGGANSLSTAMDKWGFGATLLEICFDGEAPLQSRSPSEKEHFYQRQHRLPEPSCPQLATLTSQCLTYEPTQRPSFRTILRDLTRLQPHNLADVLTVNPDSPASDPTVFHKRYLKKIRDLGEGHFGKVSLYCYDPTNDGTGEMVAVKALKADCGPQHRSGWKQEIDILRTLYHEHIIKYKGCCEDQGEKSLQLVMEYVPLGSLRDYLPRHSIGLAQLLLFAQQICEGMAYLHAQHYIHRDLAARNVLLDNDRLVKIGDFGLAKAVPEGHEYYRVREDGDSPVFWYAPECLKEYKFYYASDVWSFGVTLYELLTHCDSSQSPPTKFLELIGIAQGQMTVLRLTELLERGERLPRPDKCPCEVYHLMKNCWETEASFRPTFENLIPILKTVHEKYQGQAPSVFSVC
For each record, write down the corresponding pIC50.
Give bare numbers, as −log10 of the molar value.

Here is how some compounds turned out for pIC50.
# structure-smiles, measurement-kind, value-reported
data = [
    ("C=CC(=O)Nc1cc(Nc2ncc(Cl)c(O[C@@H]3CO[C@H]4[C@@H]3OC[C@H]4O)n2)ccc1N(C)CCN(C)C", "pIC50", 6.37),
    ("C=CC(=O)Nc1cc(Nc2ncc(Cl)c(O[C@@H]3CO[C@H]4[C@@H]3OC[C@@H]4F)n2)ccc1N1CCC(N2CCN(C)CC2)CC1", "pIC50", 6.36),
    ("C=CC(=O)Nc1cc(Nc2ncc(Cl)c(O[C@@H]3CO[C@H]4[C@@H]3OCC4(F)F)n2)ccc1N(C)CCN(C)C", "pIC50", 6.57),
    ("C=CC(=O)Nc1cc(Nc2ncc(Cl)c(O[C@@H]3CO[C@H]4[C@@H]3OC[C@H]4O)n2)ccc1N1C[C@H]2C[C@@H]1CN2C", "pIC50", 6.73),
    ("C=CC(=O)Nc1cc(Nc2ncc(Cl)c(O[C@@H]3CO[C@H]4[C@@H]3OC[C@H]4O)n2)ccc1N1CCC(N(C)C)CC1", "pIC50", 6.62),
    ("C=CC(=O)Nc1cc(Nc2ncc(Cl)c(O[C@@H]3CO[C@H]4[C@@H]3OC[C@H]4O)n2)ccc1N1CCN(CC)CC1", "pIC50", 6.78),
]

List pIC50 for every entry below, keeping the order given.
1. C=CC(=O)Nc1cc(Nc2ncc(Cl)c(O[C@@H]3CO[C@H]4[C@@H]3OC[C@H]4O)n2)ccc1N1CCC(N2CCN(C)CC2)CC1
2. C=CC(=O)Nc1cc(Nc2ncc(Cl)cn2)ccc1N1CCC(N2CCN(C)CC2)CC1
3. C=CC(=O)Nc1cc(Nc2ncc(Cl)c(O[C@@H]3CO[C@H]4[C@@H]3OC[C@H]4OC)n2)ccc1N1CCC(N2CCN(C)CC2)CC1
4. COc1cc(Nc2ncc(Cl)c(O[C@@H]3CO[C@H]4[C@@H]3OC[C@H]4O)n2)ccc1N1CCC(N2CCN(C)CC2)CC1
5. C=CC(=O)Nc1cc(Nc2ncc(Cl)c(O[C@@H]3CO[C@H]4[C@@H]3OC[C@@H]4F)n2)ccc1N(C)CCN(C)C

Return:
1. 6.43
2. 5.51
3. 6.04
4. 6.38
5. 6.04

Value of measured pIC50 for the entry C=CC(=O)Nc1cc(Nc2ncc(Cl)c(O[C@@H]3CO[C@H]4[C@@H]3OC[C@H]4F)n2)ccc1N(C)CCN(C)C : 6.03

* * *

- measured-target: JAK3 (Homo sapiens (Human))
- Sequence (P52333 whole entry): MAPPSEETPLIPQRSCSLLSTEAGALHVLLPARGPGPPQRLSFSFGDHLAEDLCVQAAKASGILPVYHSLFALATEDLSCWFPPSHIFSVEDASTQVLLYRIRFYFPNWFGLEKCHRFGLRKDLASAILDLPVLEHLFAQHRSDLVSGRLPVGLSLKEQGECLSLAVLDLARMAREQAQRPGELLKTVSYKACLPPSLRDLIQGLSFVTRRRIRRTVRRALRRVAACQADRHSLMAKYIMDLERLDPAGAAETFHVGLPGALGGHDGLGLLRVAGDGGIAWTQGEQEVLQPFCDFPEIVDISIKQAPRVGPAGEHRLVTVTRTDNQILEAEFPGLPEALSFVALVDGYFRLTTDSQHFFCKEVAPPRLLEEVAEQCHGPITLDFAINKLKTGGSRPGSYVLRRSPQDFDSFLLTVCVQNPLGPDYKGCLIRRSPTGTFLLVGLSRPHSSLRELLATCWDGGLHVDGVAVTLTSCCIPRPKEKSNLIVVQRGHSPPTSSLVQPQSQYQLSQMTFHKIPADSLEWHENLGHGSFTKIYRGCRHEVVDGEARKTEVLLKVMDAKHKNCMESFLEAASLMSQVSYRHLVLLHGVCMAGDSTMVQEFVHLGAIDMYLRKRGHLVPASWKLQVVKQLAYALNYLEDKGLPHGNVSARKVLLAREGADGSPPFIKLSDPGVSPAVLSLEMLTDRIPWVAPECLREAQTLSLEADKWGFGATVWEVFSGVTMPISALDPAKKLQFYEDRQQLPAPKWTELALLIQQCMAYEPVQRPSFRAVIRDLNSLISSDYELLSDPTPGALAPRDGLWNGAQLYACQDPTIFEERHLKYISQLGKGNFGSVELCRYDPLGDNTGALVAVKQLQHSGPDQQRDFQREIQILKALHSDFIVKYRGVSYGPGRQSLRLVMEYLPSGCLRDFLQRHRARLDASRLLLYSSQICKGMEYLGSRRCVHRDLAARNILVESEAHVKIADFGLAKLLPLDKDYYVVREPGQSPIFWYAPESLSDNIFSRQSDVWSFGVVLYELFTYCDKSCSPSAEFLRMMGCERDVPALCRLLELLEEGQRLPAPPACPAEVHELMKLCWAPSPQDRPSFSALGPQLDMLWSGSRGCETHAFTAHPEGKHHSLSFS
- assay-method-text: Z′-Lyte kinase inhibitory activity test
- Type: biochemical
- condition-description: ATP concentration 1 mM
pIC50: −log10 of the molar value.
# binarize pIC50: threshold 8 inclusive, high side True, low side False

Here's what some known entries look like.
# structure-smiles, label-class
data = [
    ("C=CC(=O)Nc1cc(Nc2ncc(Cl)c(O[C@@H]3CO[C@H]4[C@@H]3OC[C@H]4O)n2)ccc1N(C)CCN(C)C", "True"),
    ("C=CC(=O)Nc1cc(Nc2ncc(Cl)c(O[C@@H]3CO[C@H]4[C@@H]3OC[C@H]4O)n2)ccc1N1C[C@H]2C[C@@H]1CN2C", "True"),
]

Enquiry: Evaluate C=CC(=O)Nc1cc(Nc2ncc(Cl)c(O[C@@H]3CO[C@H]4[C@@H]3OC[C@H]4OC(C)C)n2)ccc1N(C)CCN(C)C : pIC50 at minimum 8?
Return: True

Enquiry: Evaluate C=CC(=O)Nc1cc(Nc2ncc(Cl)c(O[C@@H]3CO[C@H]4[C@@H]3OC[C@H]4OC)n2)ccc1N1CCOCC1 : pIC50 at minimum 8?
Return: False

Enquiry: Evaluate C=C(C)C(=O)Nc1cc(Nc2ncc(Cl)c(O[C@@H]3CO[C@H]4[C@@H]3OC[C@H]4O)n2)ccc1N1CCC(N2CCN(C)CC2)CC1 : pIC50 at minimum 8?
Return: False

Enquiry: Evaluate C=CC(=O)Nc1cc(Nc2ncc(Cl)c(O[C@@H]3CO[C@H]4[C@@H]3OC[C@H]4OC)n2)ccc1N1CCN(C)[C@@H](C)C1 : pIC50 at minimum 8?
Return: True

Enquiry: Evaluate C=CC(=O)Nc1cc(Nc2ncc(Cl)c(O[C@@H]3CO[C@H]4[C@@H]3OC[C@H]4O)n2)ccc1N1CCN(CC)CC1 : pIC50 at minimum 8?
Return: True

Enquiry: Evaluate C=CC(=O)Nc1cc(Nc2ncc(Cl)cn2)ccc1N1CCC(N2CCN(C)CC2)CC1 : pIC50 at minimum 8?
Return: True

Enquiry: Evaluate C=CC(=O)Nc1cc(Nc2ncc(Cl)c(O[C@@H]3CO[C@H]4[C@@H]3OC[C@H]4OCC)n2)ccc1N(C)CCN(C)C : pIC50 at minimum 8?
Return: True

Enquiry: Evaluate C/C=C/C(=O)Nc1cc(Nc2ncc(Cl)c(O[C@@H]3CO[C@H]4[C@@H]3OC[C@H]4O)n2)ccc1N1CCC(N2CCN(C)CC2)CC1 : pIC50 at minimum 8?
Return: False

Enquiry: Evaluate CN1CCN(C2CCN(c3ccc(Nc4ncc(Cl)c(O[C@@H]5CO[C@H]6[C@@H]5OC[C@H]6O)n4)cc3)CC2)CC1 : pIC50 at minimum 8?
Return: False

* * *

- Test system: human chronic myeloid leukemia cell line K562
- assay-method-text: CCK-8 in vitro proliferation inhibition
- Assay type: cell-based
- condition-description: Homo sapiens, K562, 72 hours, read-out: Inhibitory activity (IC50) on cell proliferation, K562
measurement-kind: IC50 (nM)
Answers are plain numbers, in nM.

Here is how some compounds turned out for IC50.
# structure-smiles, IC50 / nM
rows = [
    ("C=CC(=O)Nc1cc(Nc2ncc(Cl)c(O[C@@H]3CO[C@H]4[C@@H]3OC[C@H]4O)n2)ccc1N1CCC(N(C)C)CC1", 866),
    ("C=CC(=O)Nc1cc(Nc2ncc(Cl)c(O[C@@H]3CO[C@H]4[C@@H]3OC[C@H]4OC)n2)ccc1N1CCOCC1", 1550),
]

Value of measured IC50 for the entry C=CC(=O)Nc1cc(Nc2ncc(Cl)c(O[C@@H]3CO[C@H]4[C@@H]3OC[C@H]4O)n2)ccc1N1CCOCC1 : 1860

* * *

- Test system: human chronic myeloid leukemia cell line K562
- assay-method-text: CCK-8 in vitro proliferation inhibition
- Format: cell-based
- condition-description: Homo sapiens, K562, 72 hours, read-out: Inhibitory activity (IC50) on cell proliferation, K562
// NB: equality with 0.4 µM counts as Not satisfied; only IC50 strictly below is Satisfied

Enquiry: A record lists C=CC(=O)Nc1cc(Nc2ncc(Cl)c(O[C@@H]3CO[C@H]4[C@@H]3OC[C@H]4O)n2)ccc1N(C)CCO . Is its IC50 below 0.4 µM?
Return: Satisfied

Enquiry: A record lists C=CC(=O)Nc1cc(Nc2ncc(Cl)c(O[C@@H]3CO[C@H]4[C@@H]3OC[C@H]4O)n2)ccc1N1CCC2(CCN(C)CC2)CC1 . Is its IC50 below 0.4 µM?
Return: Satisfied

Enquiry: A record lists C=CC(=O)Nc1cc(Nc2ncc(Cl)c(O[C@@H]3CO[C@H]4[C@@H]3OC[C@H]4F)n2)ccc1N1CCN(CC)CC1 . Is its IC50 below 0.4 µM?
Return: Not satisfied

Enquiry: A record lists C=CC(=O)Nc1cc(Nc2ncc(Cl)c(O[C@@H]3CO[C@H]4[C@@H]3OC[C@H]4O)n2)c(OC)cc1N1CCC(N2CCN(C)CC2)CC1 . Is its IC50 below 0.4 µM?
Return: Satisfied

Enquiry: A record lists C=CC(=O)Nc1cc(Nc2ncc(Cl)cn2)ccc1N1CCC(N2CCN(C)CC2)CC1 . Is its IC50 below 0.4 µM?
Return: Satisfied

Enquiry: A record lists C=C(C)C(=O)Nc1cc(Nc2ncc(Cl)c(O[C@@H]3CO[C@H]4[C@@H]3OC[C@H]4O)n2)ccc1N1CCC(N2CCN(C)CC2)CC1 . Is its IC50 below 0.4 µM?
Return: Satisfied

Enquiry: A record lists C/C=C/C(=O)Nc1cc(Nc2ncc(Cl)c(O[C@@H]3CO[C@H]4[C@@H]3OC[C@H]4O)n2)ccc1N1CCC(N2CCN(C)CC2)CC1 . Is its IC50 below 0.4 µM?
Return: Not satisfied

Enquiry: A record lists C=CC(=O)Nc1cc(Nc2ncc(Cl)c(O[C@@H]3CO[C@H]4[C@@H]3OC[C@H]4OC)n2)ccc1N1CCN(C)[C@@H](C)C1 . Is its IC50 below 0.4 µM?
Return: Satisfied

Enquiry: A record lists C=CC(=O)Nc1cc(Nc2ncc(Cl)c(O[C@@H]3CO[C@H]4[C@@H]3OC[C@H]4O)n2)ccc1N1C[C@H]2C[C@@H]1CN2C . Is its IC50 below 0.4 µM?
Return: Not satisfied

Enquiry: A record lists C=CC(=O)Nc1cc(Nc2ncc(Cl)c(O[C@@H]3CO[C@H]4[C@@H]3OC[C@H]4O)n2)ccc1N1CCN(CC)CC1 . Is its IC50 below 0.4 µM?
Return: Satisfied

Enquiry: A record lists CN(C)C/C=C/C(=O)Nc1cc(Nc2ncc(Cl)c(O[C@@H]3CO[C@H]4[C@@H]3OC[C@H]4O)n2)ccc1N1CCC(N2CCN(C)CC2)CC1 . Is its IC50 below 0.4 µM?
Return: Not satisfied

Enquiry: A record lists C=CC(=O)Nc1cc(Nc2ncc(Cl)c(O[C@@H]3CO[C@H]4[C@@H]3OC[C@@H]4F)n2)ccc1N(C)CCN(C)C . Is its IC50 below 0.4 µM?
Return: Not satisfied

Enquiry: A record lists C=CC(=O)Nc1cc(Nc2ncc(Cl)c(O[C@@H]3CO[C@H]4[C@@H]3OC[C@H]4O)n2)ccc1N1C[C@@H]2C[C@H]1CO2 . Is its IC50 below 0.4 µM?
Return: Satisfied
